biological target: Cannabinoid receptor 1 (Rattus norvegicus); assay: Displacement of [3H]CP-55940 from Sprague-Dawley rat brain CB1 receptor at > 10 uM after 90 mins by scintillation counting analysis
Please use Y for Activity under 30% and N for everything else, ties included.

Problem: For the compound CCCCCn1cc(C(=O)NC23CC4CC(CC(C4)C2)C3)c(=O)n2nc(C)c(-c3ccccc3)c12 , is Activity under 30%?
Y

Problem: For the compound CCCCCn1cc(C(=O)NC23CC4CC(CC(C4)C2)C3)c(=O)n2nc(-c3ccoc3)cc12 , is Activity under 30%?
Y

Problem: For the compound CCCCCn1cc(C(=O)NC2CCCCCC2)c(=O)n2nc(-c3ccco3)cc12 , is Activity under 30%?
Y

Problem: For the compound CCCCCn1cc(C(=O)NC23CC4CC(CC(C4)C2)C3)c(=O)n2nc(-c3ccco3)cc12 , is Activity under 30%?
N

More entries:
Problem: For the compound CCCCCn1cc(C(=O)NC23CC4CC(CC(C4)C2)C3)c(=O)n2nc(-c3ccc(Cl)cc3Cl)cc12 , is Activity under 30%?
N

Problem: For the compound CCCCCn1cc(C(=O)NC23CC4CC(CC(C4)C2)C3)c(=O)n2nc(C)c(Br)c12 , is Activity under 30%?
Y

Problem: For the compound CCCCCn1cc(C(=O)NC2CCCCC2)c(=O)n2nc(-c3ccccc3Cl)cc12 , is Activity under 30%?
N

Problem: For the compound CCCCCn1cc(C(=O)NC23CC4CC(CC(C4)C2)C3)c(=O)n2nc(-c3ccc(C)s3)cc12 , is Activity under 30%?
N

Problem: For the compound CCCCCn1cc(C(=O)NC23CC4CC(CC(C4)C2)C3)c(=O)n2nc(-c3c(Cl)cccc3Cl)cc12 , is Activity under 30%?
Y
